Below is a list of entries, each paired with its recorded Kd value.
target: T1, Human IGF-1R (HIGF-1R), purified from BHK cells stably transfected with IGF-1R cDNA (human, UniProt P08069 31-1367); test: competition with 125I-IGF-1 on purified HIGF-1R (PEG or SPA assay; the sentence does not say which)
T1 construct: mature; Detergent-solubilised whole receptor, not on cells; form 'mature' is my reading of 'purified from ... cells stably transfected with IGF-1R cDNA'; also called human insulin-like growth factor-1 receptor; purified HIGF-1R
T1 sequence (P08069 31-1367 limits assumed): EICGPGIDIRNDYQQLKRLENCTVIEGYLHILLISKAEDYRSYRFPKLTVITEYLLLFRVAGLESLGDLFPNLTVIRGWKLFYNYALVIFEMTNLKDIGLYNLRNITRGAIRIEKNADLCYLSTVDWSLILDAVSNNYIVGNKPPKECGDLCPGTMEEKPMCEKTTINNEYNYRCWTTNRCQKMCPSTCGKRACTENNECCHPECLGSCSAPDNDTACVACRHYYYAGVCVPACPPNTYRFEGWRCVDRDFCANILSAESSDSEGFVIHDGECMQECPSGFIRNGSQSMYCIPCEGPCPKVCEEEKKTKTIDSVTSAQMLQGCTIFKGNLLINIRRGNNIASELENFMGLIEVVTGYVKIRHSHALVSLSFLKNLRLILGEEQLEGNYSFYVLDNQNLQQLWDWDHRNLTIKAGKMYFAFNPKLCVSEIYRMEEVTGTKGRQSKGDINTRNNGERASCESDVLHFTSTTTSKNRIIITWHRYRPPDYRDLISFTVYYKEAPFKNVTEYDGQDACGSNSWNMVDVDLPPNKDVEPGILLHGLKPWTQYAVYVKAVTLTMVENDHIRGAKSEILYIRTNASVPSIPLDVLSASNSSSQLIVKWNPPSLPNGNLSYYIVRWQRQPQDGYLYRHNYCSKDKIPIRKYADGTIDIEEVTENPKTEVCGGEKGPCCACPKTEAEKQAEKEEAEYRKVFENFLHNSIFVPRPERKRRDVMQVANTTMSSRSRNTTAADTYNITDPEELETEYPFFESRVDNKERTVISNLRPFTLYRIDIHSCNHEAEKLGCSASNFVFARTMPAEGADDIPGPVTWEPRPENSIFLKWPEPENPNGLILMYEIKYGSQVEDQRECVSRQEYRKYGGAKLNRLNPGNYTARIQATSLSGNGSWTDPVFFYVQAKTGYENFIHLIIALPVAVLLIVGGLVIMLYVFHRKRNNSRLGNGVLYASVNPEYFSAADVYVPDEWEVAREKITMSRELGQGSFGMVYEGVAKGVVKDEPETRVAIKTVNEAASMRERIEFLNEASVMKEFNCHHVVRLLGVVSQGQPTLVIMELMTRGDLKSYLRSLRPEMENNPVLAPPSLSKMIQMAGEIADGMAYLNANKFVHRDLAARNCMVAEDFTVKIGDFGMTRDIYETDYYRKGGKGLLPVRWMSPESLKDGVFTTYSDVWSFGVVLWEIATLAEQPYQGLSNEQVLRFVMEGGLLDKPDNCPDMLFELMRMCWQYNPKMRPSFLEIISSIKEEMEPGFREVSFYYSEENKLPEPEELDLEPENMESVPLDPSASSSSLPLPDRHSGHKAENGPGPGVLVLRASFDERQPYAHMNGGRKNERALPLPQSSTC
PROPERTY_MEASURED: Kd

                                binder  property_measured        result
0  ESFYSCLASLVAGTPWPKGGSWERCREE [F230]                 Kd   20 to 50 nM
1     QFYGCLLDLSLGVPSFGWRRRCITA [F138]                 Kd    6 to 10 nM
2   ESFYSCLESLVNGPAEKSRGQWDGCRE [F215]                 Kd  80 to 300 nM
